The measurements presented in this section are drawn from patent US9012659B2.

Each record here notes measured melting point.

compound="COc1cc(C2=C(c3cn(CCN(C)C)c4ccccc34)C(=O)NC2=O)cc(OC)c1OC [Example 5]" observed_result="184 to 185 °C"
compound="COc1cc(C2=C(c3cn(CCN4CCOCC4)c4ccccc34)C(=O)NC2=O)cc(OC)c1OC [Example 8]" observed_result="238 to 239 °C"
compound="COc1cc(C2=C(c3cn(CCCN(C)C)c4ccccc34)C(=O)NC2=O)cc(OC)c1OC [Example 6]" observed_result="187 to 188 °C"
compound="COc1cc(C2=C(c3cn(CCN)c4ccccc34)C(=O)NC2=O)cc(OC)c1OC.Cl [Example 1]" observed_result="277.1 °C"
compound="COc1cc(C2=C(c3cn(CCO)c4ccccc34)C(=O)NC2=O)cc(OC)c1OC [Example 3]" observed_result="195 to 196 °C"
compound="COc1cc(C2=C(c3cn(CCN4CCCCC4)c4ccccc34)C(=O)NC2=O)cc(OC)c1OC [Example 7]" observed_result="179 to 180 °C"
compound="COc1cc(C2=C(c3c[nH]c4ccc(F)cc34)C(=O)NC2=O)cc(OC)c1OC [Example 10]" observed_result="232 to 233 °C"
compound="COc1cc(C2=C(c3cn(CCCO)c4ccccc34)C(=O)NC2=O)cc(OC)c1OC [Example 4]" observed_result="160 °C"
compound="COc1cc(C2=C(c3c[nH]c4ccc(Br)cc34)C(=O)NC2=O)cc(OC)c1OC [Example 11]" observed_result="259 to 262 °C"
compound="COc1cc(C2=C(c3cn(CCCN)c4ccccc34)C(=O)NC2=O)cc(OC)c1OC.Cl [Example 2]" observed_result="274 to 275 °C"

Request the reported melting point associated with COc1cc(C2=C(c3cn(CCCN4CCN(C)CC4)c4ccccc34)C(=O)NC2=O)cc(OC)c1OC [Example 9]
225 to 226 °C

Next compound up: COc1cc(C2=C(c3c[nH]c4cccnc34)C(=O)NC2=O)cc(OC)c1OC [Example 12]
274 to 275 °C
